src = ChEMBL document CHEMBL3352570

target: Polyamine deacetylase HDAC10 (Homo sapiens, UniProt Q969S8)
Sequence (Q969S8 whole entry): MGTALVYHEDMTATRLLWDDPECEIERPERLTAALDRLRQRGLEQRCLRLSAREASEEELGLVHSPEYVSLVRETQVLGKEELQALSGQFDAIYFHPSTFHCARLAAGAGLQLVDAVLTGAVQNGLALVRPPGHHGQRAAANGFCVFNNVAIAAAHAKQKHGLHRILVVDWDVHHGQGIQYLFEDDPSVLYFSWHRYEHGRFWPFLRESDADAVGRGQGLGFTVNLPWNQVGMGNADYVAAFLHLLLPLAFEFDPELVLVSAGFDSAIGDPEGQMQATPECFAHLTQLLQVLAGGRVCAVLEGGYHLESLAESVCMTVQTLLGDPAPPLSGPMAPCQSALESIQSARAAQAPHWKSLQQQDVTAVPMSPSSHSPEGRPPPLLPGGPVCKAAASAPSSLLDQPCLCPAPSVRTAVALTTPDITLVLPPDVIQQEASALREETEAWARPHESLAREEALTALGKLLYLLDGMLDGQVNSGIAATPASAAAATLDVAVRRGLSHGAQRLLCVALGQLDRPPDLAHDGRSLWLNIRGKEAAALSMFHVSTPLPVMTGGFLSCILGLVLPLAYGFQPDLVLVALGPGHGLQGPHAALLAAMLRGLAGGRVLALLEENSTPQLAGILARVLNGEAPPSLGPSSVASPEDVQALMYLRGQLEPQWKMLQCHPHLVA
Listing: log10 of IC50 of selected compounds
In our notation, the value equals log10 of IC50 in nM.

Would you please look over these solved cases?
[[record]]
smiles_code = "O=C1CCC[C@@H](C(=O)N[C@@H](CCCCCS)C(=O)NC2CCCC2)N1"
reported_value = 2.28

[[record]]
smiles_code = "O=C(CCCCCCS)NCc1cccc(OCc2ccccc2)c1"
reported_value = 3.48

[[record]]
smiles_code = "O=C1NCCC[C@@H]1C(=O)N[C@@H](CCCCCS)C(=O)Nc1ccccc1"
reported_value = 1.04

[[record]]
smiles_code = "O=C(CCCCCCS)N1CCc2ccccc2C1"
reported_value = 3.47

[[record]]
smiles_code = "O=C1CCC[C@@H](C(=O)N[C@@H](CCCCCS)C(=O)Nc2ccccc2)N1"
reported_value = 1.04


Q) Would you mind telling me what log10 of IC50 value was observed for O=C1NC[C@H](c2ccccc2)[C@H]1C(=O)N[C@@H](CCCCCS)C(=O)Nc1ccccc1 ?
A) 0.85

Q) Give its log10 of IC50 value. Item: O=C1CCC[C@@H](C(=O)N[C@@H](CCCCCS)C(=O)NCc2ccc(C(F)(F)F)cc2)N1
A) 2.49

Q) Name the recorded log10 of IC50 for O=C1CCC[C@@H](C(=O)N[C@@H](CCCCCS)C(=O)NCc2cccc(OCc3ccccc3)c2)N1 .
A) 2.82
